Test system: SNB-75 CNS
protocol: NCI-60 one-dose screen, 48 h
condition: 10 µM unless noted
Compounds without any hit were thinned out: in the full panel of roughly 83,000, 20% have a hit. Activity calls are given as the source filed them. The calls were made as follows: active = growth percent below 10; inactive = the rest.
Valid outcomes are listed here; reply with one: active, inactive

(Q) # outcome recorded in this test, key = CCN(CC)CCOc1ccc(NC(=O)C(C(C)C)N2C(=O)/C(=C/c3ccc(Br)cc3)SC2=S)cc1 (configuration not stated)
(A) inactive

(Q) Next molecule up: `Cc1ccccc1NS(=O)(=O)c1cccc(C(=O)Nc2ccc(Br)cc2)c1`
(A) inactive

(Q) Next molecule up: O=C(N/N=C/c1ccc(Oc2ccccc2)cc1)c1cnn2c1NC(c1ccccc1)C2 (configuration not stated)
(A) inactive

(Q) Next molecule up: `COc1cc2c3c(c4c5ccccc5[nH]c4c2c(OC)c1OC)C(=O)N(CCN1CCOCC1)C3=O`
(A) inactive

(Q) Next molecule up: `COc1cc2oc(-c3cccc(C(=O)Nc4ccccc4)c3)cc(=O)c2c(O)c1OC`
(A) inactive

(Q) Next molecule up: `COc1cccc(-c2ccc3c(c2)NC(=O)/C3=C\c2ccc[nH]2)c1`
(A) inactive

(Q) Next molecule up: `O=C(CCN1CCCC1)c1ccc([N+](=O)[O-])cc1`
(A) inactive

(Q) Next molecule up: `CC(=O)Nc1ccc(-n2cnc3cc(-c4ccc(OCCN5CCCCC5)cc4)ccc32)cc1`
(A) inactive

(Q) Next molecule up: `Cc1cccc(C)c1N=c1oc2ccc(Cl)cc2nc1-c1ccccc1O`
(A) inactive

(Q) Next molecule up: `COc1ccc(/C=C/c2nc(Nc3cccc(NC(C)=O)c3)c3ccccc3n2)cc1`
(A) inactive

(Q) Next molecule up: `CC(C)N1C(=O)/C(=C2\SC(=S)N(C(C)C)C2=O)SC1=S`
(A) inactive

(Q) Next molecule up: `COc1cc(/C=C\c2cc(OC)c(OC)c(OC)c2)cc(N)c1OC`
(A) inactive

(Q) Next molecule up: COc1cc2c(c(OC)c1OC)-c1ccc(NNC(=S)N(Cc3cccc(C[N+](Cc4cccc(CNC56CC7CC(CC(C7)C5)C6)c4)(Cc4cccc(CNC56CC7CC(CC(C7)C5)C6)c4)Cc4cccc(CN(C(=S)NNc5ccc6c(cc5=O)[C@@H](NC(C)=O)CCc5cc(OC)c(OC)c(OC)c5-6)C56CC7CC(CC(C7)C5)C6)c4)c3)C34CC5CC(CC(C5)C3)C4)c(=O)cc1[C@@H](NC(C)=O)CC2 (some centres not stated)
(A) inactive

(Q) Next molecule up: `O=C(CCN1CCCC1)Nc1ccc2c(Nc3ccc(F)cc3)c3ccccc3nc2c1`
(A) inactive

(Q) Next molecule up: `Cc1nc2sccn2c1-c1nc2sccn2c1/C=C1/C(=O)Nc2ccccc21`
(A) inactive

(Q) Next molecule up: `COc1cc2cc(Oc3cccc(NC(=O)Nc4cc(C(F)(F)F)cc(C(F)(F)F)c4)c3)c(C)nc2cc1OC`
(A) active

(Q) Next molecule up: `Cc1ccc(NC(=O)Cc2ccc(/C=C/C(=O)c3ncc[nH]3)cc2)cc1`
(A) inactive

(Q) Next molecule up: `Brc1ccc(Nc2csc(-c3ccccn3)n2)cc1`
(A) inactive

(Q) Next molecule up: `COc1cc2nc(-c3ccc(C(F)(F)F)cc3)cc(OCCN3CCCCC3)c2cc1OC`
(A) inactive

(Q) Next molecule up: `COc1ccccc1/C(C)=N/NC(=O)CSc1nc2ccccc2c(=O)n1Cc1ccc(S(N)(=O)=O)cc1`
(A) inactive

(Q) Next molecule up: O=C(c1ccccc1)N1N=C(c2ccc(-n3ccc(C(F)(F)F)n3)c(F)c2)CC1c1ccc[nH]1 (configuration not stated)
(A) inactive

(Q) Next molecule up: N#CC1C(C#N)C(C(=O)c2ccc(Br)cc2)N2c3ccccc3C=CC12 (configuration not stated)
(A) inactive

(Q) Next molecule up: `O=C1Nc2ccc(F)cc2/C1=C\c1c(-c2ccccc2)nc2ccccn12`
(A) inactive

(Q) Next molecule up: `COc1ccc(C/C(=C(\C)c2ccc(OCCN3CCCC3)cc2)c2ccc(OCCN3CCCC3)cc2)cc1`
(A) inactive

(Q) Next molecule up: `Cc1ccc(S(=O)(=O)NNC(=O)/C(=C\c2ccc(Cl)cc2)c2nc3ccccc3s2)cc1`
(A) inactive

(Q) Next molecule up: `COc1ccc2[nH]c(O)c(/C=c3/cc4c(c(-c5ccc(F)cc5)n3)=Nc3ccccc3-4)c2c1`
(A) inactive

(Q) Next molecule up: `COc1cccc(C(=O)NNc2nc(Cl)nc(N3CCN(C(c4ccccc4)c4ccccc4)CC3)n2)c1`
(A) inactive

====

System: LOX IMVI melanoma
protocol: NCI-60 one-dose screen, 48 h (100 = growth as untreated, 0 = no growth, -100 = all killed)
condition: 10 µM unless noted
Compounds without any hit were thinned out: in the full panel of roughly 83,000, 20% have a hit.
metricName: growth (%)
Respond with the bare value in %.

(Q) State the recorded growth for this entry: O=C1OC(Cc2ccccc2)C1c1ccccc1 (centres undefined)
(A) 99.3

(Q) Next compound up: `O=C(Nc1cccc(C(=O)N2CCc3ccc(Cl)cc32)c1)c1ccco1`
(A) 35.9

(Q) Next compound up: `CCN(CC)c1ccc(/C=N/NC(=O)CSc2nc3ccccc3c(=O)n2CCc2ccc(S(N)(=O)=O)cc2)c(O)c1`
(A) 11.5

(Q) Next compound up: `CC(C)N1C(=O)/C(=C2\SC(=S)N(C(C)C)C2=O)SC1=S`
(A) 90

(Q) Next compound up: `COc1cccc(C(=O)NNc2nc(Cl)nc(N3CCN(C(c4ccccc4)c4ccccc4)CC3)n2)c1`
(A) 2.99

(Q) Next compound up: `COc1cccc(-c2nc3occn3c2-c2ccnc(NCCNS(=O)(=O)c3cccc4ccccc34)n2)c1`
(A) 102

(Q) Next compound up: `Fc1ccc(-c2cn3c(nc4ccccc43)c(-c3ccccc3)n2)cc1`
(A) 106

(Q) Next compound up: `COc1cc2nc(-c3ccc(C(F)(F)F)cc3)cc(OCCCN3CCOCC3)c2cc1OC`
(A) -82.1

(Q) Next compound up: `COc1ccc2c(c1)oc1c(C)c3c(c(C)c12)C(=O)N(N)C3=O`
(A) 43.4

(Q) Next compound up: `N#Cc1cc(-c2nc3ccccc3s2)c(=O)n(NS(=O)(=O)c2ccccc2)c1N`
(A) 99.4

(Q) Next compound up: `CC(=O)Oc1ccc(/C=N/NC(N)=S)nc1`
(A) 47.7

(Q) Next compound up: `COc1cc(/C=C2\COc3ccc(-c4ccccc4)cc3C2=O)cc(OC)c1`
(A) 71.9

(Q) Next compound up: `COc1cc2nc(-c3ccc(Cl)cc3)cc(OCCCN3CCC(O)CC3)c2cc1OC`
(A) -53.3

(Q) Next compound up: `CCOC(=O)Nc1ccc(-c2ccc3c(c2)NC(=O)/C3=C\c2ccc[nH]2)cc1`
(A) 97.2

(Q) Next compound up: `COc1cc(OC)cc(C(=O)C[n+]2cccc3cc[nH]c32)c1`
(A) 93.8

(Q) Next compound up: `O=C1c2ccc3c4c(ccc(c24)C(=O)N1CCCNCc1ccccc1Cl)C(=O)N(CCCNCc1ccccc1Cl)C3=O`
(A) -53.7

(Q) Next compound up: `COc1cc(/C=C/c2cc(O)c(C(C)=O)c(O)c2)cc2c1O[C@]1(C)CC[C@@H](O)C(C)(C)[C@H]1C2`
(A) 35.1

(Q) Next compound up: `O=C1c2ccccc2C(=O)c2c([N+](=O)[O-])ccc(Cl)c21`
(A) 55.4

(Q) Next compound up: `CCCCCC(=O)Oc1ccc(/C(=C(/C)Cc2ccc(OC)cc2)c2ccc(OCCCN(C)C)cc2)cc1`
(A) 50.7

(Q) Next compound up: `CNC(=O)c1cccc(Cn2nc(C)c(NC(=O)c3ccc(COc4ccc(C(F)(F)F)cc4C)cc3)c2C)c1`
(A) 58

(Q) Next compound up: `O=C(N/N=C/c1cc2ccccc2n2nnnc12)Nc1ccccc1`
(A) 108

(Q) Next compound up: `O=C1C=CC(=O)N1c1cccc(Cl)c1`
(A) 102

(Q) Next compound up: COc1ccc(C(=O)Nc2cccc(C3CCc4c(cc(OC)c(OC)c4OC)O3)c2)cc1 (centres undefined)
(A) 50.3

(Q) Next compound up: `COC(=O)c1ccc2c(c1)[n+](=O)c(C(C)=O)c(C(F)(F)F)n2[O-]`
(A) -95.3

====

Tested on: MCF7 breast
protocol: NCI-60 one-dose screen, 48 h (100 = growth as untreated, 0 = no growth, -100 = all killed)
condition: 10 µM unless noted
About 83,000 compounds went through this panel and 20% of them were active in at least one assay; those are over-represented in the sample as a whole.
# strict inequality: growth < 80% yields true, everything else yields false

(Q) Strictly below 80% in growth? `Cc1cc2nc3c4ccc(Br)cc4n(CCN(C)C)c3nc2cc1C`
(A) true

(Q) Next compound up: `CCCN1[C@@H]2CC[C@H]1/C(=C\c1ccc(OC)c(OC)c1)C(=O)/C2=C/c1ccc(OC)c(OC)c1`
(A) true

(Q) Next compound up: `CCCC/C=N/NC(=S)NCc1ccccc1`
(A) false

(Q) Next compound up: `N#C/C(=C\c1c(-c2ccccc2)[nH]c2ccccc12)C(=O)c1ccc(Cl)cc1`
(A) true

(Q) Next compound up: `C=C(C)[C@@H]1CC[C@]2(C(=O)N3CCN(C)CC3)CC[C@]3(C)[C@H](CC[C@@H]4[C@@]5(C)C/C(=C/c6cccnc6)C(=O)C(C)(C)[C@@H]5CC[C@]43C)[C@@H]12`
(A) true

(Q) Next compound up: `CN(C)CCn1c2ccc(Br)cc2c2nc3ccccc3nc21`
(A) true

(Q) Next compound up: `O=C(CSc1nc2sc3c(c2c(=O)n1-c1ccc(Cl)cc1)CCCC3)Nc1nc(-c2cccc(Br)c2)cs1`
(A) false

(Q) Next compound up: `CC1(C)c2[nH]c3ccccc3c2C[C@]2(C)[C@H]3C(=O)C=C4[C@@H]5C[C@@](C)(C(N)=O)CC[C@]5(C)CC[C@@]4(C)[C@]3(C)CC[C@@H]12`
(A) true

(Q) Next compound up: `O=C(Nc1ccc(NC(=O)c2cc(=O)[nH]c3ccccc23)cc1)Nc1cccc(Cl)c1`
(A) true

(Q) Next compound up: `N=C1C(c2nc3ccccc3s2)=C(O)CN1c1cc(Cl)cc(Cl)c1`
(A) false

(Q) Next compound up: `O=C1c2ccc3c4c(ccc(c24)C(=O)N1CCCNCc1ccccc1Cl)C(=O)N(CCCNCc1ccccc1Cl)C3=O`
(A) true

(Q) Next compound up: `COc1ccc(NC(N)=NCCCOc2ccc(F)cc2)cc1`
(A) true

(Q) Next compound up: `O=S(=O)(NCCCNc1nccc(-c2c(-c3cccc(O)c3)nc3occn23)n1)c1ccc(Cl)cc1`
(A) false

(Q) Next compound up: `CCCCOc1ccc(/C(C)=N/Nc2cc(C)nc3ccc(Br)cc23)cc1`
(A) true

(Q) Next compound up: `COc1ccc(-c2nc([C@@H](C)Sc3nc(N)cc(N)n3)c(C)s2)cc1OCCN1CCOCC1`
(A) false

(Q) Next compound up: `C=C1C(=O)O[C@H]2[C@H]1CC/C(CNC(=O)/C=C/c1ccccc1)=C\CC[C@@]1(C)O[C@@H]21`
(A) true

Recorded values, source PubChem BioAssay (NCI).
